System: NCI-H522
runDescription: NCI tumour cell line growth inhibition, 48 h
Active and inactive are the calls of the source. No stated cut-off is given here; in the data, active = GI50 up to about 1.1 µM and inactive = higher.
So I've got a bunch of compounds here, and I need their GI50 values.

What does the record list as GI50 for O=C1NNC(=O)c2ccccc2SSc2ccccc2C(=O)NNC(=O)c2ccccc2SSc2ccccc21 ?
35.5 µM (inactive)

What does the record list as GI50 for CN(C)/N=N/c1nc2c(c(=O)n(C)c(=O)n2C)n1CC(O)CO (configuration not stated) ?
> 100 µM (inactive)

What does the record list as GI50 for Cc1ccc(CC2(OCCN(C)C)CCC(C(C)(C)C)CC2)cc1 (configuration not stated) ?
3.53 µM (inactive)

What does the record list as GI50 for CSc1ccc(-c2cn3ccsc3n2)c(O)c1 ?
37.2 µM (inactive)

What does the record list as GI50 for CC(/C=C/C=C/C=C/C=C/C=C/C(=O)C1=C(O)C(CCC(=O)O)N(C)C1=O)=C\C(C)C(OC1CC(O)C(O)C(C)O1)C(C)C (configuration not stated) ?
2.91 µM (inactive)

What does the record list as GI50 for NC(=O)CC(N/C=C1/N=C(c2ccccc2)OC1=O)C(=O)O (configuration not stated) ?
> 100 µM (inactive)

What does the record list as GI50 for CC1(C)OC[C@@H]([C@@]2(COC(c3ccccc3)(c3ccccc3)c3ccccc3)CC=CC(=O)O2)O1 ?
18.4 µM (inactive)

What does the record list as GI50 for OCCN1CCN(CC/C=C2/c3ccccc3Sc3ccc(Cl)cc32)CC1 ?
16.4 µM (inactive)

What does the record list as GI50 for C=C(C=O)[C@@H]1C2OC(=O)C(=C)[C@@H]2CC(O)[C@@]1(C)CC (some centres not stated) ?
1.87 µM (inactive)

What does the record list as GI50 for O=C1C(=O)C(CCCO)(CCCO)CCCCCCCCC1(CCCO)CCCO ?
48.4 µM (inactive)

What does the record list as GI50 for C=C1C2Oc3ccccc3C1N(c1ccccc1)O2 (configuration not stated) ?
27.2 µM (inactive)

What does the record list as GI50 for COC(=O)c1sc2c(=O)c(C(=O)OC)c(C(=O)OC)sc2c(=O)c1C(=O)OC ?
21.5 µM (inactive)

What does the record list as GI50 for CC1=NN(c2ccccc2)C(=O)C1/N=N/c1ccc(S(N)(=O)=O)cc1 (configuration not stated) ?
> 100 µM (inactive)

What does the record list as GI50 for Cc1cc(C)nc(NS(=O)(=O)c2ccc(NC(=O)c3cccc4c(=O)c5ccccc5[nH]c34)cc2)n1 ?
13.1 µM (inactive)

What does the record list as GI50 for CCCCCC/C=C\CCCCCCCCCc1c(O)c(OC)cc(O)c1CN(C)C ?
1.64 µM (inactive)

What does the record list as GI50 for C1=Nc2ccccc2Cn2nncc21 ?
32.7 µM (inactive)

What does the record list as GI50 for Cc1cc(/N=C/c2ccc(C#N)cc2)n(-c2ccccc2)n1 ?
72.4 µM (inactive)

What does the record list as GI50 for COc1cccc2c3cccc(OC)c3c3[nH]cnc3c12 ?
1.55 µM (inactive)

What does the record list as GI50 for Cc1cc(NC(=O)C(=O)Cc2cnc3ccccc3n2)c(S(=O)(=O)O)cc1Cl ?
> 100 µM (inactive)

What does the record list as GI50 for CC(C)(C)NC(=O)C12C3C4C1C1C2C3C41I (configuration not stated) ?
> 100 µM (inactive)

What does the record list as GI50 for O=C(O)/C(Cl)=C(\Cl)C(=O)c1ccccc1 ?
> 100 µM (inactive)

What does the record list as GI50 for Clc1ccc(C[P+](c2ccccc2)(c2ccccc2)c2ccccc2)cc1Cl ?
1.89 µM (inactive)

====

System: ACHN
runDescription: NCI tumour cell line growth inhibition, 48 h
Activity calls are given as the source filed them. Rule as the data show it: active = GI50 up to about 1.1 µM and inactive = higher.
measure: GI50

What does the record list as GI50 for O=C(NCCCCNCCCNC(=O)c1ccccc1)c1ccccc1 ?
> 100 µM (inactive)

What does the record list as GI50 for O=C1NC(N2CCCCC2)=N/C1=C\c1ccco1 ?
> 100 µM (inactive)

What does the record list as GI50 for Cc1cc(C)c(S(=O)(=O)N(CCCN)OCCCN)c(C)c1 ?
> 100 µM (inactive)

What does the record list as GI50 for CC(/C=C/C=C/C=C/C=C/C=C/C(=O)C1=C(O)C(CCC(=O)O)N(C)C1=O)=C\C(C)C(OC1CC(O)C(O)C(C)O1)C(C)C (stereo not given) ?
3.13 µM (inactive)

What does the record list as GI50 for CC1=C(c2cc(C(=O)Nc3ccc(Cl)cc3)nc(S)n2)Sc2ccccc2N1 ?
> 100 µM (inactive)

====

Test system: SNB-75
runDescription: NCI tumour cell line growth inhibition, 48 h
Activity calls are given as the source filed them. No stated cut-off is given here; in the data, active = GI50 up to about 1.1 µM and inactive = higher.
measure: GI50

What does the record list as GI50 for CC(C)(C)C1=C(Br)C(C(C)(C)C)OP1(=O)O (stereo not given) ?
> 100 µM (inactive)

What does the record list as GI50 for CCCCC1(C2c3ccccc3Oc3ccccc32)C(=O)N(c2ccccc2)N(c2ccccc2)C1=O ?
86.7 µM (inactive)

What does the record list as GI50 for Cc1ccc(/C=C/C(=O)CCN(C)C)cc1 ?
20.1 µM (inactive)

What does the record list as GI50 for COc1cc2c(cc1OCCCCCOc1cc3c(cc1OC)C(=O)N1CCC[C@H]1CN3)N=C[C@@H]1CCCN1C2=O ?
15 µM (inactive)

What does the record list as GI50 for N#CC1(C#N)NC(c2ccccc2)C(C#N)(C#N)NC1c1ccccc1 (stereo not given) ?
> 100 µM (inactive)

====

System: DU-145
runDescription: NCI tumour cell line growth inhibition, 48 h
Activity calls are given as the source filed them. Cut-off read from the data, not from the text of the source: active = GI50 up to about 1.1 µM and inactive = higher.
So I've got a bunch of compounds here, and I need their GI50 values.

# returns recorded GI50 (system: DU-145) for Cn1c(Nc2ccccc2)c(/C=N\c2ccccc2)c(=O)n(C)c1=O
> 100 µM (inactive)

# returns recorded GI50 (system: DU-145) for Cc1cc(C)c(S(=O)(=O)N(CCCN)OCCCN)c(C)c1
> 100 µM (inactive)

# returns recorded GI50 (system: DU-145) for CC1(C)OC2C(CO)OC(n3ccc(N)nc3=O)C2O1 (stereo unspecified)
> 100 µM (inactive)

# returns recorded GI50 (system: DU-145) for CC(=O)c1ccc2c(c1)CC1(C2)Cc2cc3c(cc2C1)C(=O)CC3 (stereo unspecified)
1.4 µM (inactive)

# returns recorded GI50 (system: DU-145) for COC(=O)c1sc2c(=O)c(C(=O)OC)c(C(=O)OC)sc2c(=O)c1C(=O)OC
> 100 µM (inactive)

# returns recorded GI50 (system: DU-145) for CCC(C#N)NC(=O)NC(C#N)CC (stereo unspecified)
> 100 µM (inactive)

# returns recorded GI50 (system: DU-145) for CCOP(=O)(OCC)C(Cc1ccc(Cl)cc1)NS(=O)(=O)c1ccc(C)cc1 (stereo unspecified)
> 100 µM (inactive)

# returns recorded GI50 (system: DU-145) for CCCNC1=C2CC(C)CC(OC)[C@@H](O)[C@H](C)/C=C(\C)C(OC(N)=O)C(OC)/C=C\C=C(/C)C(=O)NC(=CC1=O)C2=O (stereo partly specified)
0.111 µM (active)

# returns recorded GI50 (system: DU-145) for C=CCCC(CCC=C)(C(=O)O)C(=O)O
> 100 µM (inactive)

# returns recorded GI50 (system: DU-145) for CCCCCCCCCCCCCCCCNc1ccn(C2CC(OP(=O)(O)OCC3OC(n4cc(CC)c(=O)[nH]c4=O)CC3O)C(CO)O2)c(=O)n1 (stereo unspecified)
31.8 µM (inactive)

# returns recorded GI50 (system: DU-145) for CNc1ncc(-c2nnnn2-c2ccccc2)c(CN(C)C)n1
> 100 µM (inactive)

# returns recorded GI50 (system: DU-145) for O=S(=O)(O)c1cc(O)c2c(O)c(/N=N/c3cccc4ccccc34)c(S(=O)(=O)O)cc2c1
> 100 µM (inactive)

# returns recorded GI50 (system: DU-145) for O=C(NC(=S)NC(=O)c1cc(O)c(O)c(O)c1)c1cc(O)c(O)c(O)c1
25.5 µM (inactive)

# returns recorded GI50 (system: DU-145) for CCOC(=O)C1=CC(C)(C(=O)OCC)Nc2c(nc(SC)n(C)c2=O)N1 (stereo unspecified)
> 10 µM (inactive)

# returns recorded GI50 (system: DU-145) for O=C1C(=O)C(CCCO)(CCCO)CCCCCCCCC1(CCCO)CCCO
75.7 µM (inactive)

# returns recorded GI50 (system: DU-145) for Cc1ccc(S(=O)(=O)NNC(=O)Nc2ccc([N+](=O)[O-])cc2)cc1
83.2 µM (inactive)

# returns recorded GI50 (system: DU-145) for CC1(C)OC[C@@H]([C@@]2(COC(c3ccccc3)(c3ccccc3)c3ccccc3)CC=CC(=O)O2)O1
56.2 µM (inactive)

# returns recorded GI50 (system: DU-145) for C/C(=C\CCC1=CC(=O)OC1)CCC1C2C(=O)CC(C)[C@@]3(C)CC[C@]1(C)[C@@]23C (stereo partly specified)
> 10 µM (inactive)

# returns recorded GI50 (system: DU-145) for COc1cc2c(cc1OC)C1C[C@]3(CCN1CC2)C(=O)N(c1ccccc1)C(=O)N3C(C)=O (stereo partly specified)
> 200 µM (inactive)

# returns recorded GI50 (system: DU-145) for CCOC(=O)CSC1NC(C(=O)OC)CC1OC (stereo unspecified)
> 100 µM (inactive)

# returns recorded GI50 (system: DU-145) for COc1cc(O)c2c(=O)c3cccc(C)c3[nH]c2c1
> 10 µM (inactive)
